Each recorded value in this set is attributed to patent US7772260B2.

Tested on: SCG neurons
test_name: cells
Assay type: cell-based, Sprague Dawley rats
condition_details: Rattus norvegicus, Neuron, 48 h, read-out: IC(50), protection of SCG neurons from Taxol killing
assay_readout: IC50 (µM)
Give the value in µM but do not write µM after it.

Look up SCG neurons data: IC50 of CC1(C)CCC(C)(C)c2cc(-c3cn4nc(S(N)(=O)=O)sc4n3)ccc21 , then report it. 3

// fetch IC50; item: NS(=O)(=O)c1nn2cc(-c3cc4ccc5cccc6ccc(c3)c4c56)nc2s1 ; system: SCG neurons 10

Print SCG neurons IC50 for Cc1cc2c(cc1-c1cn3nc(S(N)(=O)=O)sc3n1)C(C)(C)CCC2(C)C . 6
